Known transcriptional activation domain activity of a selection of sequences
Test system: Saccharomyces cerevisiae
Experimental details: transcriptional activation domain activity (GFP:mCherry ratio, weighted mean of sorted bins, harmonized to initial dataset scale) (arbitrary fluorescence ratio units); higher = stronger transcriptional activation
Particulars: beta-estradiol 1 µM; induction time 4 h
Please respond with just the number, no unit label.

Report the value of transcriptional activation domain activity obtained on Saccharomyces cerevisiae for MVNCLKVFLVVLLAPIPLAPPIFLLSFLALMVVDHEPCPYCSLLIILLLQSTC .
31200

Please look at MTWFGILPPFSWPWIYPRSFGMCGNLSTTLFLHVLIALFFFFCLFFHLCLLWL and tell me its recorded transcriptional activation domain activity on Saccharomyces cerevisiae.
50200

Here's the next entry for you.
For Saccharomyces cerevisiae, give transcriptional activation domain activity of the listed sequence: PYIVYPLKPCLSGPLCELYPSVMNLWAMCLHLILLCIQIPFLLSIPFWLLFPL
86900

----------
System: Saccharomyces cerevisiae
Experimental details: transcriptional activation domain activity (GFP:mCherry ratio, weighted mean of sorted bins, harmonized to initial dataset scale) (arbitrary fluorescence ratio units); higher = stronger transcriptional activation
Particulars: beta-estradiol 1 µM; induction time 4 h
We begin with a simple list: items and their reported transcriptional activation domain activity.
# respond with the number and nothing more

// solved cases for transcriptional activation domain activity follow
Give the reported value of transcriptional activation domain activity for this record: EVDMTPADALDDFDLEMLGDVESPSPGMTHDPVSYGALDVDDFEFEQMFTDAL
112000

Report transcriptional activation domain activity, nothing else, for this sequence: FLVRLFVLPVTLCMLYRCSVSLDLSRLNGSARNEWFNYWNKALLLGMTLFSMR
62500

Consider the sequence TLTSPQGSDLASNSATQYKPDLEDFLMQNSNFNGLMINPSSLVEVVGGYNDPN . State its measured transcriptional activation domain activity.
83200

Give the reported transcriptional activation domain activity for this sequence. VIYSHRYVFHKKKGLRHIHVLNGWYVLSRIIAVYVLQDFLGEGSSVVVIAFLR
58700

Given the sequence VCVCVWELVLVLVVWCCHCFSFVHSLHFLPWLLFSSPLVFLFPFPFFFFCLFL , write its reported transcriptional activation domain activity.
68600

---
Give the reported value of transcriptional activation domain activity for this record: MSSSDPLRKRDFEDSTRRLACDRCRGQKLRCERITGKTTSPCRRCVKARARCT
35300

Could you please provide reported transcriptional activation domain activity for PKEAVASTPEEPAASEPVAAPALAAAEPVAAAEAPAAAPVPETKAEEVSIQHL ? Thanks!
23600

Provide measured transcriptional activation domain activity value, entry: IVNFTLLVLIVPRLSIWCRPHSKRMHGAGVWDSFVLARASIFVSVLGVLCVAL
54400

Look up and state reported transcriptional activation domain activity for MSLKRRAHRKSRNGCRECKRRRIKCDETKPHCGHCVRHGIHCVYPESAGASPA
43000

Check the records and state transcriptional activation domain activity for VVFNQIWIYFFIYTMIFICLILVAFYTVLLVLLIHPKKIPHNTRTVLNVYRAR
66100

For MGKRRRLLAKAQPKSGGSTSAKHHPQQGTGKAVAARGQKPQKQQGAPRNGSNG , write its transcriptional activation domain activity.
21900

Supply recorded transcriptional activation domain activity for MPSAYHLGITPFGVHQWDINLRTLQRYLFFLYCCWIIWGILVLLLKVIILLQY here.
39700

Specify measured transcriptional activation domain activity for KLHQQAKSDFDELQESIPHQVGFSTPQLTAQQLIENAIESGVVDLETLDLPPF .
112000
